# Lookup of reported kinase still bound, per cent of control keyed by entry
Biological target: CAMK1D (human) (UniProt Q8IU85)
Sequence (Q8IU85 whole entry, looked up): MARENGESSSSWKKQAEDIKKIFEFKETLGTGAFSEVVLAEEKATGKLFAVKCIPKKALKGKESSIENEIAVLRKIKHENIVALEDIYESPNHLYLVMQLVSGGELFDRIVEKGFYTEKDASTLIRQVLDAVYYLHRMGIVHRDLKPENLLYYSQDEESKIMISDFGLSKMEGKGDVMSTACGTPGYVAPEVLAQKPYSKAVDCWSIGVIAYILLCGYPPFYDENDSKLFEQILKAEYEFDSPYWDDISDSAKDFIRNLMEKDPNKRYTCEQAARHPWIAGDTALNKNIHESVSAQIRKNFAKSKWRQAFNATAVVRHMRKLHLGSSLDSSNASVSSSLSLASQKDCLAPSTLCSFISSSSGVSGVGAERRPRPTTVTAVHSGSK
Assay: KINOMEscan competition binding
Conditions: compound 10.0 µM
Respond with the bare value in %.

Example entries begin here.
- Molecule: "N#C/C(=C1/Nc2ccccc2S1)c1ccnc(NCCc2cccnc2)n1"
  Property name: "kinase still bound, per cent of control"
  Measured number: 70
- Molecule: "C=CC(=O)Nc1ccc(C(=O)c2sc(Nc3ccc(N4CCN(C)CC4)cc3OC)nc2N)cc1"
  Property name: "kinase still bound, per cent of control"
  Measured number: 0.55
- Molecule: "N#Cc1cc(-c2ccnc(Nc3ccc(-n4cnc(-c5cccnc5)n4)cc3)n2)cc(N2CCOCC2)c1"
  Property name: "kinase still bound, per cent of control"
  Measured number: 87
- Molecule: "COc1cc(C)c(Sc2cnc(NC(=O)c3ccc(CNC(C)C(C)C)cc3)s2)cc1C(=O)N1CCN(C(C)=O)CC1 (stereo not given)"
  Property name: "kinase still bound, per cent of control"
  Measured number: 100
- Molecule: "COc1cc2ncnc(Nc3cccc(Cl)c3)c2cc1OC"
  Property name: "kinase still bound, per cent of control"
  Measured number: 83
- Molecule: "CCN(CCO)CCCOc1ccc2c(Nc3cc(CC(=O)Nc4cccc(F)c4)[nH]n3)ncnc2c1"
  Property name: "kinase still bound, per cent of control"
  Measured number: 83
- Molecule: "COc1cc2c(Nc3ccc(NC(=O)c4ccccc4)cc3)ncnc2cc1OCCCN1CCOCC1"
  Property name: "kinase still bound, per cent of control"
  Measured number: 62
- Molecule: "O=c1[nH]c2ccccc2n1C1CCN(Cc2ccc(-c3nc4cc5[nH]cnc5cc4nc3-c3ccccc3)cc2)CC1"
  Property name: "kinase still bound, per cent of control"
  Measured number: 76
- Molecule: "COc1cc(N2CCC(C(N)=O)CC2)ccc1Nc1nc(N)c(Cl)c(Nc2ccccc2S(=O)(=O)C(C)C)n1"
  Property name: "kinase still bound, per cent of control"
  Measured number: 100

Now look at this one.
The molecule identified as "CCOc1cc(N2CCC(O)CC2)ccc1Nc1ncc2c(n1)N(C)c1ccccc1C(=O)N2C" registered its kinase still bound, per cent of control at 100

Source: the kinase profiling compilation of Christmann-Franck et al. (2016)
